Target: Cannabinoid receptor 2 (Rattus norvegicus) (UniProt Q9QZN9)
Sequence (whole entry): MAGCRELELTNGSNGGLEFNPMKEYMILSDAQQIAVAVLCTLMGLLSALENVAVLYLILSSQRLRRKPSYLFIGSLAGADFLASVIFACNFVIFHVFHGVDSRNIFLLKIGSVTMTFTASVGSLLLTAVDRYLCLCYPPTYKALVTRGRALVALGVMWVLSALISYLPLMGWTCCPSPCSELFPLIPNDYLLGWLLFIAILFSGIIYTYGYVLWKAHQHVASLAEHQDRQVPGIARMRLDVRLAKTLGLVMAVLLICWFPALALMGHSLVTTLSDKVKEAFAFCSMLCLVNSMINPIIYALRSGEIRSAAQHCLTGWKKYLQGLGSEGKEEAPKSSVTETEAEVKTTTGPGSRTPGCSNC
Experiment: Agonist activity at recombinant rat CB2 receptor expressed in HEK293 cells assessed as increase in beta arrestin recruitment measured after 2 to 3 hrs by PathHunter assay relative to CP55940
Assay type: functional, cell-based
value_type: Emax
Number first, unit second.

Requested read-out: Emax. Entry: O=C(NC1(C(F)(F)F)CCC1)c1nn(-c2c[n+]([O-])ccn2)c2c1C[C@@H]1C[C@H]21
106%

Same read-out for CC(C)(CO)NC(=O)c1nn(-c2ccc(F)cc2F)c2c1C[C@H]1C[C@@H]21 ?
46%

Entry CC(C)(NC(=O)c1nn(-c2c[n+]([O-])ccn2)c2c1C[C@@H]1C[C@H]21)C(F)(F)F please
98%

Okay, and O=C(NC1(C(F)(F)F)CC1)c1nn(-c2c[n+]([O-])ccn2)c2c1C[C@@H]1C[C@H]21 ?
103%

Likewise for O=C(N[C@@H](CO)C(F)(F)F)c1nn(-c2c[n+]([O-])ccn2)c2c1C[C@@H]1C[C@H]21 ?
107%

Can you handle O=C(NC1(CO)CCCC1)c1nn(-c2c[n+]([O-])ccn2)c2c1C[C@@H]1C[C@H]21 next?
106%

Could you do the same for CC(C)(CO)NC(=O)c1nn(-c2cnccn2)c2c1C[C@H]1C[C@@H]21 , please?
85%

Check CC(C)(C)[C@@H](CO)NC(=O)c1nn(-c2cnccn2)c2c1C[C@H]1C[C@@H]21 too.
78%

Next molecule up: O=C(N[C@H](CO)c1ccccc1)c1nn(-c2c[n+]([O-])ccn2)c2c1C[C@@H]1C[C@H]21
72%

Similarly, CC(C)[C@@H](CO)NC(=O)c1nn(-c2c[n+]([O-])ccn2)c2c1C[C@@H]1C[C@H]21 ?
88%

Similarly, CC(C)(C)[C@@H](CO)NC(=O)c1nn(-c2cnccn2)c2c1C[C@@H]1C[C@H]21 ?
95%

Okay, and CC(C)(C)[C@@H](CF)NC(=O)c1nn(-c2c[n+]([O-])ccn2)c2c1C[C@@H]1C[C@H]21 ?
97%

Same question, O=C(N[C@H](CO)C(F)(F)F)c1nn(-c2c[n+]([O-])ccn2)c2c1C[C@@H]1C[C@H]21 this time
85%

Now the same for CC(C)[C@@H](CF)NC(=O)c1nn(-c2c[n+]([O-])ccn2)c2c1C[C@@H]1C[C@H]21
87%

Now the same for CC(C)(C)[C@@H](CO)NC(=O)c1nn(-c2c[n+]([O-])ccn2)c2c1C[C@@H]1C[C@H]21 [OLORINAB]
100%

Try the molecule CC1(NC(=O)c2nn(-c3c[n+]([O-])ccn3)c3c2C[C@@H]2C[C@H]32)CC1
81%

---

Target: Cytochrome P450 2D6 (Homo sapiens)
Sequence (P10635 whole entry): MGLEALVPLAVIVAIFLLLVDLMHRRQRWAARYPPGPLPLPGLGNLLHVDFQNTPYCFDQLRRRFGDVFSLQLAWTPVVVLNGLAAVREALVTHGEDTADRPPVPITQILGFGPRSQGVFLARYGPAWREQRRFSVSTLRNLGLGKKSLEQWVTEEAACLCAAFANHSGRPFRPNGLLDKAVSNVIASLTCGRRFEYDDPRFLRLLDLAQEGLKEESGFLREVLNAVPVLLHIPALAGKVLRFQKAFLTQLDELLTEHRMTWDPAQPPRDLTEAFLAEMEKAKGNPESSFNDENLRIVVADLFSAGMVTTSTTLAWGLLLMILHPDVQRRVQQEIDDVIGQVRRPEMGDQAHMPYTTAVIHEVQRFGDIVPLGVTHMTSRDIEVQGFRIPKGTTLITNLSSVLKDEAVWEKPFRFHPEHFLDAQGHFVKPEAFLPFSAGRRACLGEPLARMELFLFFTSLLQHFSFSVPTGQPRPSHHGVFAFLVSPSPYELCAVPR
pIC50: −log10 of the molar value.
value_type: pIC50

Which pIC50 is reported for this compound? CC(C)(C)[C@@H](CO)NC(=O)c1nn(-c2c[n+]([O-])ccn2)c2c1C[C@@H]1C[C@H]21
< 4.30

---

Assignment: determine reported half-life for the given molecules.
Assay: Half life in rat liver microsomes
Assay type: ADME, microsome

Which half-life is reported for this molecule? CC(C)(C)[C@@H](CF)NC(=O)c1nn(-c2c[n+]([O-])ccn2)c2c1C[C@@H]1C[C@H]21
> 1 h

Entry to check: CC(C)(C)[C@@H](CO)NC(=O)c1nn(-c2cnccn2)c2c1C[C@@H]1C[C@H]21
> 1 h

// same read-out, input: CC(C)(CO)NC(=O)c1nn(-c2cnccn2)c2c1C[C@H]1C[C@@H]21
> 1 h

And then CC(C)(C)[C@@H](CO)NC(=O)c1nn(-c2cnccn2)c2c1C[C@H]1C[C@@H]21 , what is it?
0.633 h

Lookup CC(C)[C@@H](CO)NC(=O)c1nn(-c2c[n+]([O-])ccn2)c2c1C[C@@H]1C[C@H]21
> 1 h

Proceed to O=C(N[C@@H](CO)C(F)(F)F)c1nn(-c2c[n+]([O-])ccn2)c2c1C[C@@H]1C[C@H]21
> 1 h

---

Assay: Protein binding in human plasma assessed as unbound fraction
Type: ADME, cell-free
value_type: fraction unbound

Value lookup for fraction unbound; key = CC(C)(C)[C@@H](CO)NC(=O)c1nn(-c2c[n+]([O-])ccn2)c2c1C[C@@H]1C[C@H]21
0.1 to 0.2

---

Target: Cannabinoid receptor 2 (Homo sapiens)
Sequence (P34972 whole entry): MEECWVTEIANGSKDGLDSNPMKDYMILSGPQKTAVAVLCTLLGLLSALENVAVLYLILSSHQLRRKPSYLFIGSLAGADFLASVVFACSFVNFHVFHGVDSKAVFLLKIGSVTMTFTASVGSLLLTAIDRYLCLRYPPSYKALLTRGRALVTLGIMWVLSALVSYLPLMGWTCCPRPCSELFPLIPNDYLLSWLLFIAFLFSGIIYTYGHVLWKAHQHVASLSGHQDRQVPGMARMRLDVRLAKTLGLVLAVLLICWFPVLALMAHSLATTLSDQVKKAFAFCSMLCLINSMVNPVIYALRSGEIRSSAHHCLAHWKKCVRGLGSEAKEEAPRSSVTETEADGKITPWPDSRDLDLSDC
Assay: Agonist activity at recombinant human CB2 receptor expressed in HEK293 cells assessed as increase in beta arrestin recruitment measured after 2 to 3 hrs by PathHunter assay relative to CP55940
Format: functional, cell-based
Consider the following compounds; for each one, report its Emax.
State just the number; it will be interpreted in %.

What does the record list as Emax for O=C(N[C@@H](CO)C(F)(F)F)c1nn(-c2c[n+]([O-])ccn2)c2c1C[C@@H]1C[C@H]21 ?
119

Now this one: CC(C)(C)[C@H](CO)NC(=O)c1nn(-c2cnccn2)c2c1C[C@@H]1C[C@H]21
78

Same for O=C(NC1(CO)CCCC1)c1nn(-c2c[n+]([O-])ccn2)c2c1C[C@@H]1C[C@H]21
112

Would you kindly repeat that for CC(C)(C)[C@@H](CF)NC(=O)c1nn(-c2c[n+]([O-])ccn2)c2c1C[C@@H]1C[C@H]21 ?
107

Now this one: CC(C)(C)[C@@H](CO)NC(=O)c1nn(-c2cnccn2)c2c1C[C@H]1C[C@@H]21
104

Same thing, different compound: O=C(N[C@H](CO)C(F)(F)F)c1nn(-c2c[n+]([O-])ccn2)c2c1C[C@@H]1C[C@H]21
98

How about this compound: CC(C)(NC(=O)c1nn(-c2c[n+]([O-])ccn2)c2c1C[C@@H]1C[C@H]21)C(F)(F)F
108

Same question, CC(C)[C@@H](CF)NC(=O)c1nn(-c2c[n+]([O-])ccn2)c2c1C[C@@H]1C[C@H]21 this time
98

---

Target: Cannabinoid receptor 1 (Rattus norvegicus)
Sequence (P20272 whole entry): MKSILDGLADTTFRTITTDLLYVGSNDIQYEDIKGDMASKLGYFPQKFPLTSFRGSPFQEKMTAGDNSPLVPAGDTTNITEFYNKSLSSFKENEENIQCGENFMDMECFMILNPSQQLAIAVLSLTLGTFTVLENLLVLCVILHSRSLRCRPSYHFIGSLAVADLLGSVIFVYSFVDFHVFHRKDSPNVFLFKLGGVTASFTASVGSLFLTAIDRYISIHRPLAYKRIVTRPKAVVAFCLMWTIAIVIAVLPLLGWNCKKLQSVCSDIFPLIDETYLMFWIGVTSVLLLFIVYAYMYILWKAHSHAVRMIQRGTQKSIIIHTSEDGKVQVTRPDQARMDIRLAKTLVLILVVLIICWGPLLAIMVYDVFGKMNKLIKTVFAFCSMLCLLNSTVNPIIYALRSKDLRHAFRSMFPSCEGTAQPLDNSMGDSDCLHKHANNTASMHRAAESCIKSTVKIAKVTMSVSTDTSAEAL
Assay: Agonist activity at recombinant rat CB1 receptor expressed in HEK293 cells assessed as increase in beta arrestin recruitment measured after 2 to 3 hrs by PathHunter assay
Type: functional, cell-based
value_type: EC50

Report EC50 for CC1(NC(=O)c2nn(-c3c[n+]([O-])ccn3)c3c2C[C@@H]2C[C@H]32)CC1 tested on Cannabinoid receptor 1 (Rattus norvegicus).
> 10 µM

Try this molecule too: CC(C)[C@@H](CO)NC(=O)c1nn(-c2c[n+]([O-])ccn2)c2c1C[C@@H]1C[C@H]21
> 10 µM

Same read-out for CC(C)(C)[C@@H](CO)NC(=O)c1nn(-c2cnccn2)c2c1C[C@@H]1C[C@H]21 ?
> 10 µM

What do you get for O=C(NC1(C(F)(F)F)CCC1)c1nn(-c2c[n+]([O-])ccn2)c2c1C[C@@H]1C[C@H]21 ?
> 10 µM

Next record, please: CC(C)[C@@H](CF)NC(=O)c1nn(-c2c[n+]([O-])ccn2)c2c1C[C@@H]1C[C@H]21
2.7 µM

Same thing, different molecule: CC(C)(C)[C@@H](CF)NC(=O)c1nn(-c2c[n+]([O-])ccn2)c2c1C[C@@H]1C[C@H]21
0.84 µM

Subsequent entry: O=C(NC1(C(F)(F)F)CC1)c1nn(-c2c[n+]([O-])ccn2)c2c1C[C@@H]1C[C@H]21
> 10 µM

Subsequent entry: CC(C)(C)[C@@H](CO)NC(=O)c1nn(-c2cnccn2)c2c1C[C@H]1C[C@@H]21
> 10 µM

Next entry: O=C(N[C@H](CO)C(F)(F)F)c1nn(-c2c[n+]([O-])ccn2)c2c1C[C@@H]1C[C@H]21
> 10 µM

Another molecule to check: CC(C)(C)[C@@H](CO)NC(=O)c1nn(-c2c[n+]([O-])ccn2)c2c1C[C@@H]1C[C@H]21
10 to 30 µM

Next entry: O=C(NC1(CO)CCCC1)c1nn(-c2c[n+]([O-])ccn2)c2c1C[C@@H]1C[C@H]21
> 10 µM

Try CC(C)(NC(=O)c1nn(-c2c[n+]([O-])ccn2)c2c1C[C@@H]1C[C@H]21)C(F)(F)F next.
> 10 µM

And the next one, O=C(N[C@H](CO)c1ccccc1)c1nn(-c2c[n+]([O-])ccn2)c2c1C[C@@H]1C[C@H]21 ?
> 10 µM

// repeat for O=C(N[C@@H](CO)C(F)(F)F)c1nn(-c2c[n+]([O-])ccn2)c2c1C[C@@H]1C[C@H]21 and report
> 10 µM
